molecular target: KAT5 Full length enzyme (Homo sapiens (Human)); test: KAT5 assay (SAMDI-MS acetylation of H4 1-21 peptide); format: biochemical; conditions: Morrison equation fit; replicate number in parentheses; read-out: KAT5 Ki (nM) (replicate number)
measure: log10 of Ki (log10 of the value in nM)
Values are log10 of Ki in nM.

# count of solved cases: 5
Field log10 of Ki (entry COc1cc2c(NS(=O)(=O)c3c(OC)cc(C(C)N4CC(F)C4)cc3OC)noc2cc1Nc1cc(C2CC2)[nH]n1 (single isomer, unassigned) ) reads 2.03

Field log10 of Ki (entry CCc1cc(Nc2cc3onc(NS(=O)(=O)c4ccc(Oc5ccccc5)cc4)c3cc2OC)n[nH]1 ) reads 3.74

Field log10 of Ki (entry COc1cc2c(NS(=O)(=O)c3c(OC)cc(-c4ncc(N5CCN(C)CC5)cn4)cc3OC)noc2cc1Nc1cc(C2CC2)n[nH]1 ) reads 1.06

Field log10 of Ki (entry COc1cc2c(NS(=O)(=O)c3ccc(C)cc3OCC(F)F)noc2cc1Nc1cc(C(C)C)[nH]n1 ) reads 2.88

Field log10 of Ki (entry COc1cc2c(NS(=O)(=O)c3c(OC)cccc3OC)noc2cc1Nc1n[nH]c(C)n1 ) reads 3.03

More entries:
Field log10 of Ki (entry COc1cc2c(NS(=O)(=O)c3cc4c(cc3OC)CCCC4)noc2cc1Nc1cc(C)n[nH]1 ) reads 1.53

Field log10 of Ki (entry CCc1cc(Nc2cc3onc(NS(=O)(=O)c4cccc(-c5ccc(OC)cc5)c4)c3cc2OC)[nH]n1 ) reads 3.22

---

Ki values by entry
target: KAT7+JADE1+EAF6+ING5 4 protein complex (Homo sapiens (Human), UniProt O95251); experiment: KAT7 JADE1 assay (SAMDI-MS acetylation of H3 1-21 peptide); format: biochemical; conditions: Morrison equation fit; replicate number in parentheses; read-out: KAT7 JADE1 Ki (nM) (replicate number)
Numeric answer only, unit nM assumed.

# count of solved cases: 3
Field Ki (entry COc1cc2c(NS(=O)(=O)c3c(OC)cc(CN4CC(C)C4)cc3OC)noc2cc1Nc1cc(C2CC2)n[nH]1 ) reads 17.2

Field Ki (entry COc1cc2c(NS(=O)(=O)c3c(OC)cc(C4CCCN4CC(F)F)cc3OC)noc2cc1Nc1cc(C2CC2)n[nH]1 (single isomer, unassigned) [Example 165] ) reads 5

Field Ki (entry COc1cc2c(NS(=O)(=O)c3c(OC)cc(-c4ncc(N5CCN(C)CC5)cn4)cc3OC)noc2cc1Nc1cc(C2CC2)n[nH]1 ) reads 3

// below: Ki requested for another compound
Field Ki (entry COc1cc2c(NS(=O)(=O)c3c(OC)cccc3OC)noc2cc1Nc1cc(C2CCNCC2)n[nH]1 ) reads 594

---

target: KAT7+JADE1+EAF6+ING5 4 protein complex (Homo sapiens (Human)); assay: KAT7 JADE1 assay (SAMDI-MS acetylation of H3 1-21 peptide); format: biochemical; details: Morrison equation fit; replicate number in parentheses; read-out: KAT7 JADE1 Ki (nM) (replicate number)
Ki values by entry
Numeric answer only, unit nM assumed.

Record COc1cc2c(NS(=O)(=O)c3c(OC)cc(-c4cnn(C)n4)cc3OC)noc2cc1Nc1cc(C2CC2)n[nH]1 ; system KAT7+JADE1+EAF6+ING5 4 protein complex (Homo sapiens (Human)); Ki = 11.1

Record COc1cc2c(NS(=O)(=O)c3c(OC)cccc3OC)noc2cc1Nc1nc[nH]n1 ; system KAT7+JADE1+EAF6+ING5 4 protein complex (Homo sapiens (Human)); Ki = 54.7

Record COc1cc2c(NS(=O)(=O)c3ccccc3OC)noc2cc1Nc1cc(C(C)C)[nH]n1 ; system KAT7+JADE1+EAF6+ING5 4 protein complex (Homo sapiens (Human)); Ki = 206

Record CCc1cc(Nc2cc3onc(NS(=O)(=O)c4c(OC)cc(-c5cn(C)cn5)cc4OC)c3cc2OC)[nH]n1 ; system KAT7+JADE1+EAF6+ING5 4 protein complex (Homo sapiens (Human)); Ki = 12.7

---

Ki values by entry
molecular target: KAT7+JADE1+EAF6+ING5 4 protein complex (Homo sapiens (Human)); test: KAT7 JADE1 assay (SAMDI-MS acetylation of H3 1-21 peptide); format: biochemical; details: Morrison equation fit; replicate number in parentheses; read-out: KAT7 JADE1 Ki (nM) (replicate number)
Numeric answer only, unit nM assumed.

# count of solved cases: 4
Field Ki (entry CCOc1cc(C(F)F)ccc1S(=O)(=O)Nc1noc2cc(Nc3cc(C4CC4)n[nH]3)c(F)c(OC)c12 ) reads 50.7

Field Ki (entry COc1cc2c(NS(=O)(=O)c3c(OC)cc(CN4CC(F)C4)cc3OC)noc2cc1Nc1cc(C2CC2)n[nH]1 ) reads 5.2

Field Ki (entry COc1cc2c(NS(=O)(=O)c3ccc(C)cc3OCC(F)F)noc2cc1Nc1cc(C(C)C)[nH]n1 ) reads 191

Field Ki (entry CCc1cc(Nc2cc3onc(NS(=O)(=O)c4c(OC)cccc4OC)c3c(OC)c2F)[nH]n1 ) reads 21.5

More entries:
Field Ki (entry COc1cc2c(NS(=O)(=O)c3c(OC)cccc3OC)noc2cc1Nc1cc(C(F)(F)F)n[nH]1 ) reads 729

Field Ki (entry COc1cccc(OC)c1S(=O)(=O)Nc1noc2cc(Nc3cccnn3)cc(OC)c12 ) reads 516

---

Ki values by entry
target: KAT5 Full length enzyme (Homo sapiens (Human), UniProt Q92993); test: KAT5 assay (SAMDI-MS acetylation of H4 1-21 peptide); type: biochemical; details: Morrison equation fit; replicate number in parentheses; read-out: KAT5 Ki (nM) (replicate number)
Sequence (Q92993 whole entry): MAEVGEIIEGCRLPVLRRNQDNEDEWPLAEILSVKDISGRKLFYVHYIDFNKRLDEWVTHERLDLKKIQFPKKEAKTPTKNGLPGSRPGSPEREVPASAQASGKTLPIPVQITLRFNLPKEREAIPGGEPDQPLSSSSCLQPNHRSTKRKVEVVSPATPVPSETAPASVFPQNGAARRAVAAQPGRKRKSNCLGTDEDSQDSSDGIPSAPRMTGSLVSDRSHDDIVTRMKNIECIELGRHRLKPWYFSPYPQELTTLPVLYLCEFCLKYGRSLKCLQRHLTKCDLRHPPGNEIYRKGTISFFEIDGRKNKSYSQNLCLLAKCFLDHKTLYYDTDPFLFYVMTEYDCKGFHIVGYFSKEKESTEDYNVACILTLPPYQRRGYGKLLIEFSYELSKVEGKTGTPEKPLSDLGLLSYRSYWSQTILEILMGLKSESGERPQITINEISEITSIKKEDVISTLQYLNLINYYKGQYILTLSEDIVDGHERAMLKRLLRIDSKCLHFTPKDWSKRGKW
Numeric answer only, unit nM assumed.

Field Ki (entry COc1cc2c(NS(=O)(=O)c3c(OC)cc(-c4ccn(C)n4)cc3OC)noc2cc1Nc1cc(C2CC2C)n[nH]1 (single isomer, unassigned) [Example 242] ) reads 34

Field Ki (entry CCOc1cc(C)c(F)cc1S(=O)(=O)Nc1noc2cc(Nc3cc(C4CC4)n[nH]3)c(F)c(OC)c12 [Example 70] ) reads 280

---

target: KAT7+BRPF2+EAF6+ING5 4 protein complex (Homo sapiens (Human)); assay: KAT7 BRPF2 assay (SAMDI-MS acetylation of H3 1-21 peptide); format: biochemical; conditions: replicate number in parentheses; read-out: KAT7 BRPF2 Ki (nM) (replicate)
measure: Ki (nM)
Numeric answer only, unit nM assumed.

# count of solved cases: 6
Field Ki (entry COc1cc2c(NS(=O)(=O)c3c(OC)cc(N(C)C4CCOC4)cc3OC)noc2cc1Nc1cc(C2CC2)[nH]n1 (stereo not shown) ) reads 1.7

Field Ki (entry COc1cc2c(NS(=O)(=O)c3c(OC)cc(N4CCN(C)C(=O)C4)cc3OC)noc2cc1Nc1cc(C2CC2)n[nH]1 ) reads 1.2

Field Ki (entry COc1cc2c(NS(=O)(=O)c3c(OC)cc(N4C(=O)CCC4(C)C)cc3OC)noc2cc1Nc1cc(C2CC2)n[nH]1 ) reads 0.8

Field Ki (entry COc1cc2c(NS(=O)(=O)c3c(OC)cc(N4CCN(C)CC4)cc3OC)noc2cc1Nc1cc(C2CC2)n[nH]1 ) reads 2.1

Field Ki (entry COc1cc2c(NS(=O)(=O)c3c(OC)cc(N(C)C4COC4)cc3OC)noc2cc1Nc1cc(C2CC2)n[nH]1 ) reads 2.6

Field Ki (entry COc1cc2c(NS(=O)(=O)c3c(OC)cc(N4CC[C@@H](OC)C4)cc3OC)noc2cc1Nc1cc(C2CC2)n[nH]1 ) reads 0.9

// below: Ki requested for another molecule
Field Ki (entry COc1cc2c(NS(=O)(=O)c3c(OC)cc(N4CC[C@@H](F)C4)cc3OC)noc2cc1Nc1cc(C2CC2)n[nH]1 ) reads 0.3

---

target: KAT6A Full length enzyme (Homo sapiens (Human)); test: KAT6A assay (SAMDI-MS acetylation of H3 1-21 peptide); format: biochemical; conditions: Morrison equation fit; replicate number in parentheses; read-out: KAT6A Ki (nM) (replicate number)
Sequence (Q92794 other isoform, or with tags, fused parts or gaps): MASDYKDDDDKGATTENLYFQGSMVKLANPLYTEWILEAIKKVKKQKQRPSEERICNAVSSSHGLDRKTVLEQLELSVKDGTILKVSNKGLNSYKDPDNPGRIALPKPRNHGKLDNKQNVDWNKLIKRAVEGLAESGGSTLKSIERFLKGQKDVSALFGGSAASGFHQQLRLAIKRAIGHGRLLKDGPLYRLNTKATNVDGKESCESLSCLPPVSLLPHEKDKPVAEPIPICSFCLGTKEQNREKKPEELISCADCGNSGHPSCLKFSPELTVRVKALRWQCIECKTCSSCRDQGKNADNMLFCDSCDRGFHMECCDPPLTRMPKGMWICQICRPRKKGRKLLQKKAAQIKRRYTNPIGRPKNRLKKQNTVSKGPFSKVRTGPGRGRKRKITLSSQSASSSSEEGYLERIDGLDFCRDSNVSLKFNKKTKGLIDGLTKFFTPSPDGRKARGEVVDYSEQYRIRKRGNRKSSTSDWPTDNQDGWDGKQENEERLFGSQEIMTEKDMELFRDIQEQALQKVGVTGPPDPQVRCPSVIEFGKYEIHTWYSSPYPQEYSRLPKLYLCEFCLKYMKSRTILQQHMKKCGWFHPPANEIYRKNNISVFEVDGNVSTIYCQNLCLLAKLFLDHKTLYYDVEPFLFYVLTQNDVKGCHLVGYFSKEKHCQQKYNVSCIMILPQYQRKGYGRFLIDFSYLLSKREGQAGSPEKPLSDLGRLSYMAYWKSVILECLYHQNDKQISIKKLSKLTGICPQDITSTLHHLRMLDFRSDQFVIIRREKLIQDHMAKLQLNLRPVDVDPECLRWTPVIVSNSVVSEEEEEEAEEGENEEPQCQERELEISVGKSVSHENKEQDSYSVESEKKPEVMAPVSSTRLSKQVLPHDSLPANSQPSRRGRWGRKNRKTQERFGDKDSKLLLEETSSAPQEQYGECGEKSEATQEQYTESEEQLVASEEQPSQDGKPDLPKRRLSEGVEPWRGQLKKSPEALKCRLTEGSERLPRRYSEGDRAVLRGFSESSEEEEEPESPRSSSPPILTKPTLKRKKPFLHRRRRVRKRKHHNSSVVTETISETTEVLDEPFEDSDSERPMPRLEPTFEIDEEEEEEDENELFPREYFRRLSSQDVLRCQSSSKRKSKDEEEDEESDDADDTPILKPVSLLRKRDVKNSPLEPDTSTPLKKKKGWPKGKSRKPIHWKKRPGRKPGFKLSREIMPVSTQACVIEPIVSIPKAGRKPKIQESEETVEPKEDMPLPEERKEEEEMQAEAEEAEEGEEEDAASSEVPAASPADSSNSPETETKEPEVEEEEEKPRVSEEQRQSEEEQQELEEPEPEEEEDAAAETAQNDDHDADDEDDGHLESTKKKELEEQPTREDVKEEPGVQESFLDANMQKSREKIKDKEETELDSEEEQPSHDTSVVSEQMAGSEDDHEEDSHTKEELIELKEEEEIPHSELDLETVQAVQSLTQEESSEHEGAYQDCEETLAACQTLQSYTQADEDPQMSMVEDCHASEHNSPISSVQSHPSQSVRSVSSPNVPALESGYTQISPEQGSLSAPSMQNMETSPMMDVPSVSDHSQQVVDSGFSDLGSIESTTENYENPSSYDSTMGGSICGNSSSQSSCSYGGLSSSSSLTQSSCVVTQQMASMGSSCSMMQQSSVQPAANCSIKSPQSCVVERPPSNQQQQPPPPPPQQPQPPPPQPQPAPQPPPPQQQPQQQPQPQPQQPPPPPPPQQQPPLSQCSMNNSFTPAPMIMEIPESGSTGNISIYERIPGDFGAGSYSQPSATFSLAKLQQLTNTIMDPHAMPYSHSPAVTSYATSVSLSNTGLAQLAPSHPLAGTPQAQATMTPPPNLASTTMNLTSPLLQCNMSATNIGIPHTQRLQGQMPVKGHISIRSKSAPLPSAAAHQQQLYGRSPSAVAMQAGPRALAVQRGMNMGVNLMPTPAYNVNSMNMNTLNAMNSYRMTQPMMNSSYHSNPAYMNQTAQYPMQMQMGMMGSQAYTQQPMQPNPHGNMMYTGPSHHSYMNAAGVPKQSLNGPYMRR
Lab note: compare Ki with 2 nM, writing Y if less and N if equal or more.

Ask: Determine if CCOc1cc(C(F)F)ccc1S(=O)(=O)Nc1noc2cc(Nc3cc(C4CC4)n[nH]3)c(F)c(OC)c12 shows Ki strictly lower than 2 nM.
Result: N

More entries:
Ask: Determine if COc1cc2c(NS(=O)(=O)c3c(OC)cccc3OC)noc2cc1Nc1cc(C(C)(F)F)n[nH]1 shows Ki strictly lower than 2 nM.
Result: N

Ask: Determine if COc1cc2c(NS(=O)(=O)c3c(OC)cc(C4COC(C)(C)CO4)cc3OC)noc2cc1Nc1cc(C2CC2)n[nH]1 (single isomer, unassigned) [Example 186] shows Ki strictly lower than 2 nM.
Result: Y

Ask: Determine if COc1cc2c(NS(=O)(=O)c3c(OC)cccc3OC3CC3)noc2cc1Nc1cc[nH]n1 shows Ki strictly lower than 2 nM.
Result: Y

Ask: Determine if COc1cc2c(NS(=O)(=O)c3c(OC)cc([C@@H]4COCCO4)cc3OC)noc2cc1Nc1cc(C2CC2)n[nH]1 shows Ki strictly lower than 2 nM.
Result: Y

Ask: Determine if COc1cc2c(NS(=O)(=O)c3c(OC)cc(-c4cccnc4)cc3OC)noc2cc1Nc1cc(C2CC2)n[nH]1 shows Ki strictly lower than 2 nM.
Result: Y

Ask: Determine if COc1cc2c(NS(=O)(=O)c3c(OC)cc(C4COCCN4C)cc3OC)noc2cc1Nc1cc(C2CC2)[nH]n1 (single isomer, unassigned) [Example 180] shows Ki strictly lower than 2 nM.
Result: Y
